- Test system: Pichia kudriavzevii
- assay text: Antifungal activity against Candida krusei ATCC 6258 assessed as decrease in fungal cell growth at 0.78 to 12.5 mg/L incubated for 24 hrs by CLSI broth dilution method
- Format: functional
- condition parameters: ATCC 6258, 24 h
recorded endpoint: MIC (µg/mL)
API: value field is a number in µg/mL; no unit string.

Example results:
C[Si]1(C)OB(O)c2ccc(B(O)O)cc21: 400
C[Si]1(C)OB(O)c2ccccc21: 25
C[Si]1(C)OB(O)c2ccc(Cl)c(Cl)c21: 12.5
C[Si]1(C)OB(O)c2cccc(B(O)O)c21: 50
C[Si]1(C)OB(O)c2cc(B(O)O)cc(F)c21: 50

With Pichia kudriavzevii as the test system, C[Si]1(C)OB(O)c2ccc(Cl)cc21 showed MIC of 25

With Pichia kudriavzevii as the test system, C[Si]1(C)OB(O)c2c(F)c(F)c(F)c(F)c21 showed MIC of 200

With Pichia kudriavzevii as the test system, C[Si]1(C)OB(O)c2ccc(C(F)(F)F)cc21 showed MIC of 200

With Pichia kudriavzevii as the test system, C[Si]1(C)OB(O)c2ccc(F)c(F)c21 showed MIC of 100
